Values compiled from patent US9714236B2.

Target: recombinant JAK3 (amino acids 781-1124) (Homo sapiens (Human))
Sequence (P52333 781-1124): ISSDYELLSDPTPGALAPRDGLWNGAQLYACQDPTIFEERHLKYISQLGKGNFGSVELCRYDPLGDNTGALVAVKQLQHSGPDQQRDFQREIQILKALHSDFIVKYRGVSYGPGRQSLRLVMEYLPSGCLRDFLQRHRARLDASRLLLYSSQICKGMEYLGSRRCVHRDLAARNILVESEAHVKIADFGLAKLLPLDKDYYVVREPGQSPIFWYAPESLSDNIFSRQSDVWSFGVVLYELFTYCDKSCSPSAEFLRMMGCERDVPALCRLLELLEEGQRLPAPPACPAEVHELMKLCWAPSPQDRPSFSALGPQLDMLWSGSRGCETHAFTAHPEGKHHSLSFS
Experiment: Enzyme inhibition studies, JAK3 (peptide phosphorylation, Caliper LC3000)
Conditions: ATP concentration of the tabulated values not stated (assayed at ATP Km 3 μM and at 5 mM)
Measured IC50 by item

Example compounds with recorded IC50:
| compound | IC50 |
| --- | --- |
| CCN1CCN([C@H](C)C(=O)Nc2cccc3c(-c4nc(Nc5cn(C)nc5OC)ncc4C)c[nH]c23)CC1 | > 30 µM |
| CCOc1nn(C)cc1Nc1ncc(C)c(-c2c[nH]c3c(NC(=O)[C@H](CC)N4CCN(C)CC4)cccc23)n1 | > 30 µM |
| CCc1nn(C)cc1Nc1ncc(C)c(-c2c[nH]c3c(NC(=O)[C@@H](C)N4CCN(C)CC4)cccc23)n1 | > 30 µM |

Task item: Identify the reported IC50 for the following entry. COc1nn(C)cc1Nc1ncc(C)c(-c2c[nH]c3c(NC(=O)[C@@H](C)N4CCN(C)[C@@H](C)C4)cccc23)n1
Reply: > 30 µM

Task item: Identify the reported IC50 for the following entry. CCOc1nn(CC)cc1Nc1ncc(C)c(-c2c[nH]c3c(NC(=O)[C@@H](C)N4CCN(C)CC4)cccc23)n1
Reply: > 30 µM
